Where do the numbers come from? From PubChem BioAssay (NCI).

growth values by entry
- System: ACHN renal
- method-summary: NCI-60 one-dose screen, 48 h (100 = growth as untreated, 0 = no growth, -100 = all killed)
- condition-notes: 10 µM unless noted
About 83,000 compounds went through this panel and 20% of them were active in at least one assay; those are over-represented in the sample as a whole.
Write down the numeric answer in % and omit the unit.

Completed entries (count: 5):
compound	target-entity	growth [%]
NC(CCc1nc2ccccc2c(=O)[nH]1)C(=O)O (stereo unspecified)	ACHN renal	113
COc1ccc(/C=C/C(=O)c2c(C)nc3ccccc3c2/C=C/c2ccccc2)cc1O	ACHN renal	62.2
COc1ccc(/C=C2\NC(=O)NC2=O)cc1O	ACHN renal	105
Cc1ccc(Nc2nc(N)c3ccccc3n2)cc1Cl	ACHN renal	64.4
Cc1ccc(OCCCCCCNCCO)c(C)c1	ACHN renal	15.3

[in] Value wanted: growth (ACHN renal) of entry O=C(Cc1ccccc1)NC(c1ccc(Cl)cc1)c1c(O)ccc2ccccc12 (stereo unspecified)
[out] 10.1
